# System: MYB mRNA
# Assay Name: Splicing RT-qPCR assay, MYB canonical (CJ) and alternative (AJ) junction mRNA
# Type: cell-based, human
# Condition Description: Homo sapiens, 24 h, A673 or K562 cells, 24 hours compound treatment, RT-qPCR; read-out: MYB AJ (AC50, increase in alternative junction mRNA)
Counter-ions that a name gives are not always drawn.
Property Label: AC50

The examples below pair each entry with its known result.
| Compound | AC50 |
| --- | --- |
| COc1c(NC(=O)c2ccc(N3CCNCC3)c3cn(C)nc23)cc2cn(C)nc2c1F [Compound 315, hydrochloride] | < 100 nM |
| CCn1cc2c(N3CCN[C@@H](C4CC4)C3)ccc(C(=O)Nc3cc(F)c4nc(C)cn4c3)c2n1 [Compound 541] | 100 to 1000 nM |
| Cc1cn2cc(NC(=O)c3ccc(C4CCN(C)CC4)c4cc(C)oc34)cc(F)c2n1 [Compound 256] | 100 to 1000 nM |

Now for a further compound.
The compound listed as Cc1cn2cc(NC(=O)c3ccc(N4CCC(N(C)C)C4)c4cn(C)nc34)cc(Cl)c2n1 (stereo not shown) [Compound 278] has a reported AC50 of < 100 nM
